# experimental_system: CDK7/CycH/Mat1 (Homo sapiens, UniProt P50613)
# Construct: purchased Carna
# Sequence (P50613 whole entry): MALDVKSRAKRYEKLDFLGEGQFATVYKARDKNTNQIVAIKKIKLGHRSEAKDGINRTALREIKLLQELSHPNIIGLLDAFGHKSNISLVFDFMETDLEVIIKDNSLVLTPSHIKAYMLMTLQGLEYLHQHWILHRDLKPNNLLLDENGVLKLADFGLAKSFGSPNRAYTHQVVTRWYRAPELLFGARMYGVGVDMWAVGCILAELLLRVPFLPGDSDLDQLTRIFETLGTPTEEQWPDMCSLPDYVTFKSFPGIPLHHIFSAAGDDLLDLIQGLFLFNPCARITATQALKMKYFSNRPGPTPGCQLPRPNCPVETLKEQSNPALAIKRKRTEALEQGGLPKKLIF
# Sequence (P51946 whole entry partner): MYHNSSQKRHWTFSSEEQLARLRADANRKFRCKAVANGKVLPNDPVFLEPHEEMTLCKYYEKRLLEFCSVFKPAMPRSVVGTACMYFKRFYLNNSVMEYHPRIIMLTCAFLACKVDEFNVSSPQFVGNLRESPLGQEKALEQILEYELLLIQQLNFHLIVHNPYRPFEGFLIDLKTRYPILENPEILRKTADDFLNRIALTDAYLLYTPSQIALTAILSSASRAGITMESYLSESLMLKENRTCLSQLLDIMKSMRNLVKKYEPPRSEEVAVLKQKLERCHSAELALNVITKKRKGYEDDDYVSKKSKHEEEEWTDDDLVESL
# Sequence (P51948 whole entry partner): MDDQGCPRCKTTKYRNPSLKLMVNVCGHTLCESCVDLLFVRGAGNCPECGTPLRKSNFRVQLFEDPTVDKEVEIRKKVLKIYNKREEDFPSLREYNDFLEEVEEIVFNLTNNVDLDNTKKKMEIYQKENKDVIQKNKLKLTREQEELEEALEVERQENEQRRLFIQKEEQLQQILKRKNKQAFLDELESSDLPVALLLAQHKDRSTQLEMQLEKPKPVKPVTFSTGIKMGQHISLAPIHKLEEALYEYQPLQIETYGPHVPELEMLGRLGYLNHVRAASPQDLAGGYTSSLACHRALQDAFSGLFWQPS
# measurement_notes: CDK7 Enzymatic Activity Assay (Lance Kinase Activity Assay, FRET)
# Assay type: biochemical
# study_conditions: Table 5A; 25 μM ATP final; read-out: CDK7: IC50 [mM] for CDK7 inhibition (the above defined ranges apply)

{"compound": "Cc1ccc([C@H](C)Nc2nc(OC3CCN(C)CC3)nc3c(C(C)C)cnn23)cc1 [(VII-ab)]", "experimental_system": "CDK7/CycH/Mat1 (Homo sapiens, UniProt P50613)", "IC50": "10 to 30 nM"}
{"compound": "CCOc1ccccc1[C@H](C)Nc1nc(O[C@@H]2CCCNC2)nc2c(C(C)C)cnn12 [(VII-aw)]", "experimental_system": "CDK7/CycH/Mat1 (Homo sapiens, UniProt P50613)", "IC50": "> 100 nM"}
{"compound": "CC(C)c1cnn2c(N[C@@H](C)c3ccccc3I)nc(O[C@@H]3CCCNC3)nc12 [(VII-au)]", "experimental_system": "CDK7/CycH/Mat1 (Homo sapiens, UniProt P50613)", "IC50": "10 to 30 nM"}
{"compound": "COc1cccc([C@H](C)Nc2nc(O[C@@H]3CCCNC3)nc3c(C(C)C)cnn23)c1OC [(VII-aX)]", "experimental_system": "CDK7/CycH/Mat1 (Homo sapiens, UniProt P50613)", "IC50": "< 10 nM"}
{"compound": "CC(C)c1cnn2c(NC(C)c3ccccc3-c3ccccc3)nc(O[C@@H]3CCCNC3)nc12 (stereo partly shown) [(VII-as)]", "experimental_system": "CDK7/CycH/Mat1 (Homo sapiens, UniProt P50613)", "IC50": "> 100 nM"}
{"compound": "COc1cccc([C@H](C)Nc2nc(NC(CN)c3ccccc3)nc3c(C(C)C)cnn23)c1 (stereo partly shown) [(VIII-z)]", "experimental_system": "CDK7/CycH/Mat1 (Homo sapiens, UniProt P50613)", "IC50": "> 100 nM"}
{"compound": "COc1cccc([C@H](C)Nc2nc(CN3CC(N4CCCC4=O)C3)nc3c(C(C)C)cnn23)c1 [(XXIX-10)]", "experimental_system": "CDK7/CycH/Mat1 (Homo sapiens, UniProt P50613)", "IC50": "> 100 nM"}
{"compound": "COc1cccc([C@H](C)Nc2nc(SC3CCNCC3)nc3c(C(C)C)cnn23)c1 [(X-e)]", "experimental_system": "CDK7/CycH/Mat1 (Homo sapiens, UniProt P50613)", "IC50": "> 100 nM"}
{"compound": "COc1cccc([C@H](C)Nc2nc(C(=O)N(C)CCN3CCCC3)nc3c(C(C)C)cnn23)c1 [(XXVI-3)]", "experimental_system": "CDK7/CycH/Mat1 (Homo sapiens, UniProt P50613)", "IC50": "> 100 nM"}
{"compound": "CC(C)c1cnn2c(NC(C)c3ccccc3N3CCCCC3)nc(O[C@@H]3CCCNC3)nc12 (stereo partly shown) [(VII-aq)]", "experimental_system": "CDK7/CycH/Mat1 (Homo sapiens, UniProt P50613)", "IC50": "> 100 nM"}
{"compound": "CC(C)c1cnn2c(N[C@H](c3ccccc3)C3CC3)nc(O[C@@H]3CCCNC3)nc12 [(VII-s)]", "experimental_system": "CDK7/CycH/Mat1 (Homo sapiens, UniProt P50613)", "IC50": "10 to 30 nM"}
{"compound": "COc1cccc([C@H](C)Nc2nc(CNCCN3CCOCC3)nc3c(C(C)C)cnn23)c1 [(XXIX-7)]", "experimental_system": "CDK7/CycH/Mat1 (Homo sapiens, UniProt P50613)", "IC50": "> 100 nM"}
{"compound": "COc1cccc([C@H](C)Nc2nc(CNCCCN3CCOCC3)nc3c(C(C)C)cnn23)c1 [(XXIX-5)]", "experimental_system": "CDK7/CycH/Mat1 (Homo sapiens, UniProt P50613)", "IC50": "> 100 nM"}
{"compound": "COc1cccc([C@H](C)Nc2nc(CN(C)CCN3CCCC3)nc3c(C(C)C)cnn23)c1 [(XXIX-6)]", "experimental_system": "CDK7/CycH/Mat1 (Homo sapiens, UniProt P50613)", "IC50": "> 100 nM"}
{"compound": "COc1cccc([C@H](C)Nc2nc(CNCCN)nc3c(C(C)C)cnn23)c1 [(XXIX-2)]", "experimental_system": "CDK7/CycH/Mat1 (Homo sapiens, UniProt P50613)", "IC50": "> 100 nM"}
{"compound": "CC(C)c1cnn2c(N[C@@H](C)c3ccccc3)nc(OC[C@H]3CCCN3)nc12 [(VII-l)]", "experimental_system": "CDK7/CycH/Mat1 (Homo sapiens, UniProt P50613)", "IC50": "30 to 100 nM"}
{"compound": "CC(C)c1cnn2c(N[C@@H](C)c3ccccc3)nc(OCC3CCNCC3)nc12 [(VII-c)]", "experimental_system": "CDK7/CycH/Mat1 (Homo sapiens, UniProt P50613)", "IC50": "< 10 nM"}
{"compound": "COc1cccc([C@H](C)Nc2nc(NCC3CCNC3)nc3c(C(C)C)cnn23)c1 (stereo partly shown) [(VIII-w)]", "experimental_system": "CDK7/CycH/Mat1 (Homo sapiens, UniProt P50613)", "IC50": "30 to 100 nM"}
{"compound": "CC(C)c1cnn2c(N[C@@H](C)c3ccc(Cl)cc3)nc(O[C@@H]3CCCNC3)nc12 [(VII-al)]", "experimental_system": "CDK7/CycH/Mat1 (Homo sapiens, UniProt P50613)", "IC50": "> 100 nM"}
